Measured values drawn from paper PMC2801581 for this set.

assayed.target: TCPTP (Homo sapiens, UniProt P17706)
Sequence (P17706 5-275 limits assumed): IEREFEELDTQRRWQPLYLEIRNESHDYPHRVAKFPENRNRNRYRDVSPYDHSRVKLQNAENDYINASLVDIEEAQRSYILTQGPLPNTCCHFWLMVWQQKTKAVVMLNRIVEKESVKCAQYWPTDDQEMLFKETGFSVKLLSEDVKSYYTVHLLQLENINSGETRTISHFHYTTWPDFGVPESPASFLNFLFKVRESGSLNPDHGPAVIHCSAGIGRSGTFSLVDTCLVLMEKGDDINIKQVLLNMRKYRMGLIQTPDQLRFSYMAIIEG
protocol.details: TCPTP inhibition assay with fluorogenic substrates
Format: biochemical
details: read-out: IC50 TCPTP (DiFMUP); pH 7.1
endpoint: pIC50
Interpret pIC50 as the negative base-10 log of the concentration measured in mol/L.

Name the recorded pIC50 for O=S(=O)(O)c1ccc([P+]([Au-][Cl])(c2ccccc2)c2ccc(S(=O)(=O)O)cc2)cc1 [Compound 18] .
4.80

----------
assayed.target: LYP (Homo sapiens, UniProt Q9Y2R2)
Sequence (Q9Y2R2 2-309): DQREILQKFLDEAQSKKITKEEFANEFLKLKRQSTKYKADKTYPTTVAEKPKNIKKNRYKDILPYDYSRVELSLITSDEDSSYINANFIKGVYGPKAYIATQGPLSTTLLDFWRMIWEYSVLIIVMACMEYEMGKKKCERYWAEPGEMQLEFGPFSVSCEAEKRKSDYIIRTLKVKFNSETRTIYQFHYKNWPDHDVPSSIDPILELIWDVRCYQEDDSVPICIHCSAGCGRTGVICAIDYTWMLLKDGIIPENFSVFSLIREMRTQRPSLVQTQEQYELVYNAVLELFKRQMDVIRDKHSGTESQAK
protocol.details: LYP inhibition assay with fluorogenic substrates
Format: biochemical
details: read-out: IC50 LYP (peptide 1); pH 6.5
endpoint: IC50 (nM)
Express your answer in nM, writing the number without its unit.

Name the recorded IC50 for [Cl][Au][PH](c1ccccc1)(c1ccccc1)c1ccccn1 .
1500

----------
Form field: pIC50 (one value per entry).
assayed.target: PTP1B (Homo sapiens)
Sequence (P18031 3-277 limits assumed): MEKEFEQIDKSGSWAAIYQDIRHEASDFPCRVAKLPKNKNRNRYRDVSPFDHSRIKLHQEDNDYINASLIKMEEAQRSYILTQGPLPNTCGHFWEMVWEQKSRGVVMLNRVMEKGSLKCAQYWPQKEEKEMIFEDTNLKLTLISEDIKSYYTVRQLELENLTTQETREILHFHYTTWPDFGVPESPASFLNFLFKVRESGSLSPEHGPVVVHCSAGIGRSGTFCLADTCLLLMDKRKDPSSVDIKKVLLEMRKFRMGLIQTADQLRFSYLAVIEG
protocol.details: PTP1B inhibition assay with fluorogenic substrates
Format: biochemical
details: read-out: IC50 PTP1B (DiFMUP); substrate DiFMUP 1.5 µM, pH 7.1
Interpret pIC50 as the negative base-10 log of the concentration measured in mol/L.

Name the recorded pIC50 for Fc1c(F)c(F)c([PH]([Au][Cl])(c2c(F)c(F)c(F)c(F)c2F)c2c(F)c(F)c(F)c(F)c2F)c(F)c1F .
5.12

Now look at this entry.
Name the recorded pIC50 for [Cl][Au][PH](c1ccco1)(c1ccco1)c1ccco1 .
6.48

----------
assayed.target: LYP (Homo sapiens, UniProt Q9Y2R2)
protocol.details: LYP inhibition assay with fluorogenic substrates
Assay type: biochemical
details: read-out: IC50 LYP (DiFMUP); pH 6.5
endpoint: pIC50
Interpret pIC50 as the negative base-10 log of the concentration measured in mol/L.

Name the recorded pIC50 for [Cl][Au][PH](c1ccccc1)(c1ccccc1)c1ccccn1 .
5.30

----------
assayed.target: TCPTP (Homo sapiens, UniProt P17706)
protocol.details: TCPTP inhibition assay with fluorogenic substrates
Type: biochemical
details: read-out: IC50 TCPTP (peptide 2); pH 7.1
endpoint: pIC50
Interpret pIC50 as the negative base-10 log of the concentration measured in mol/L.

Name the recorded pIC50 for O=S(=O)(O)c1ccc([P+]([Au-][Cl])(c2ccccc2)c2ccc(S(=O)(=O)O)cc2)cc1 .
5.12

----------
assayed.target: UniProtKB P17706
protocol.details: TCPTP inhibition assay with fluorogenic substrates
Format: biochemical
details: read-out: IC50 TCPTP (peptide 2); substrate peptide 2 60 µM, pH 7.1
Form field: IC50 (one value per entry).
Express your answer in µM, writing the number without its unit.

Name the recorded IC50 for Fc1c(F)c(F)c([PH]([Au][Cl])(c2c(F)c(F)c(F)c(F)c2F)c2c(F)c(F)c(F)c(F)c2F)c(F)c1F .
57

Now look at this entry.
Name the recorded IC50 for [Cl][Au][PH](c1ccco1)(c1ccco1)c1ccco1 .
2.2
